Biological target: UniProtKB Q63470
Type: biochemical, Homo sapiens
The source made the active and inactive calls.
OUTCOME MEASURE: AC50

Consider the worked cases shown below.
                             smiles_repr    reported_result
0  Oc1ccc(/C=N/n2c(S)nnc2C2CCCCC2)c(O)c1   0.93 µM (active)
1               CC(/C=C/c1ccc(O)cc1)=N/O   1.54 µM (active)
2         Cc1nc2c(=O)n(C)c(=O)nc-2n(C)n1  0.215 µM (active)

Then there is this compound:
query: Record request: AC50 value, item Nc1nc2cc([N+](=O)[O-])ccc2[nH]1
result: 7.07 µM (active)
